system: NCI-H23 lung; experiment: NCI-60 one-dose screen, 48 h; conditions: 10 µM unless noted
This is part of a sample that, as a whole, favours compounds with a hit. Of some 83,000 tested, about 20% had one in any assay. Calls of active or inactive are those of the source. How the source made its calls: active means growth percent below 10; inactive means the rest.
Field 'call' accepts YES (active), NO (inactive)

These solved cases illustrate the format of a correct answer.
{"Compound": "CCN(CC)CCNC(=O)n1cc(-c2ccncc2)c(-c2cc(Cl)cc(OC)c2)n1", "Class assignment": "NO"}
{"Compound": "O=C(N/N=C/c1ccc([N+](=O)[O-])o1)c1ccc(O)cc1", "Class assignment": "NO"}
{"Compound": "c1ccc(-c2ccc(-c3ccccc3)[nH]2)cc1", "Class assignment": "NO"}
{"Compound": "COc1cc(NC(=O)CSc2nc3ccc(Cl)cc3c(=O)n2Cc2ccccc2)cc(OC)c1OC", "Class assignment": "NO"}
{"Compound": "CC1=CC(=O)OC1C/C=C(\\C)CCC1[C@@]2(C)CCC[C@@](C)(C(=O)O)C2CC[C@@]1(C)O (stereo partly specified)", "Class assignment": "NO"}

Task: Record request — test call for COc1cc2ncnc(Nc3ccc(S(=O)(=O)Nc4cc(C)on4)cc3)c2cc1OCCCN1CCN(c2ccc([N+](=O)[O-])cc2)CC1
Output: NO

Task: Repeat with Clc1ccc(C2=NN[C@H](c3cn(-c4ccccc4)nc3-c3ccccc3)C2)cc1
Output: NO

Task: Repeat with COc1cnc2c(c1)C(=O)c1c-2n(CCCNC(C)C)c(=O)c2cc(Cl)ccc12
Output: YES

Task: Repeat with O=C1/C(=C/N2N=C(c3ccc(Cl)cc3)CC2c2ccccc2O)SC(=S)N1c1cccc(C(F)(F)F)c1 (stereo unspecified)
Output: NO

Task: Repeat with CCN(CC)c1ccc(/C=C2/NC(=O)NC2=O)cc1
Output: NO

Task: Repeat with CN(C)c1nc(-c2ccco2)n2nc(-c3ccc(Cl)cc3)cc2n1
Output: NO

Task: Repeat with COc1ccc([C@H]2c3[nH]c4ccccc4c3C[C@H]3C(=O)N(CCCCCCC(=O)NO)CC(=O)N23)cc1
Output: NO

Task: Repeat with O=C(c1ccccc1)C1OC1C(=O)c1ccccc1 (stereo unspecified)
Output: YES

Task: Repeat with C=C(COC(C)=O)[C@H]1CC/C(C)=C/CC/C(C)=C/CC[C@@]2(C)O[C@H]2C1
Output: NO

Task: Repeat with O=C(Cc1ccc([N+](=O)[O-])cc1)Oc1ccccc1
Output: NO

* * *

system: HCT-15 colon; assay: NCI-60 one-dose screen, 48 h; conditions: 10 µM unless noted
About 83,000 compounds went through this panel and 20% of them were active in at least one assay; those are over-represented in the sample as a whole. Calls of active or inactive are those of the source. How the source made its calls: active means growth percent below 10; inactive means the rest.
Field 'call' accepts TRUE for active, FALSE for inactive

Task: Record request — test call for CN(C)c1nc(-c2cccs2)n2nc(-c3ccc(Cl)cc3)cc2n1
Output: FALSE

Task: Repeat with COc1cc2ccc(C(C)=O)cc2cc1OC
Output: FALSE

Task: Repeat with O=P(O)(O)C(O)(Cc1cccnc1)P(=O)(O)O
Output: FALSE

Task: Repeat with CC(C)c1ccc2c(c1)CCC1C2CCCC1(C)NCc1ccccc1 (centres undefined)
Output: TRUE

* * *

tested on: SN12C renal; test: NCI-60 one-dose screen, 48 h (100 = growth as untreated, 0 = no growth, -100 = all killed); settings: 10 µM unless noted
This is part of a sample that, as a whole, favours compounds with a hit. Of some 83,000 tested, about 20% had one in any assay.
Endpoint: growth (%)
Just the number please, in %, no unit attached.

Example results:
{"Molecule": "O=C(Nc1ccc([N+](=O)[O-])cc1)c1cc2ccccc2cc1O", "growth, %": 1.45}
{"Molecule": "CC(C)N(C(=S)SSC(=S)N(C(C)C)C(C)C)C(C)C", "growth, %": 101}
{"Molecule": "COc1cc(CN2CCC(N3CCCC3=O)c3ccccc32)cc(OC)c1OC (centres undefined)", "growth, %": 79.7}

Let's switch to this molecule now.
Task: Which value of growth has been reported for COc1ccc(C2c3cccn3-c3ccccc3N2C(C)=O)cc1 (centres undefined) in the records?
Output: 99.8
